- test-target: SARS-CoV-2 N CTD+IDR (SARS-CoV-2, UniProt P0DTC9 250-419)
- protocol-text: BLI; BLI (Octet RED96e, SSA sensors, biotinylated RNA immobilised): PBS, 0.02% Tween 20, 25 C; pH not stated; 1:1 kinetic fit
- test-parameters: protein: recombinant; tags: 6xHis-SUMO tag removed by Ulp1; chain copies: 2; 3' overhang 2 nt (UU) on strand 2
endpoint-label: Kd (µM)
Dear colleague, please return just the value in µM, with no unit written.

Kd for Unpaired Duplex TRS-1 (RNA1/RNA5, TRS1-cTRS2) (dsRNA) RNA 1: ACGAAC RNA 2: GUUCGUUU ?
23
